meta.source: paper PMC5814047

system-tested: IDE (Homo sapiens, UniProt P14735)
Construct: made in house; host or cells: bacteria
Sequence (P14735 whole entry): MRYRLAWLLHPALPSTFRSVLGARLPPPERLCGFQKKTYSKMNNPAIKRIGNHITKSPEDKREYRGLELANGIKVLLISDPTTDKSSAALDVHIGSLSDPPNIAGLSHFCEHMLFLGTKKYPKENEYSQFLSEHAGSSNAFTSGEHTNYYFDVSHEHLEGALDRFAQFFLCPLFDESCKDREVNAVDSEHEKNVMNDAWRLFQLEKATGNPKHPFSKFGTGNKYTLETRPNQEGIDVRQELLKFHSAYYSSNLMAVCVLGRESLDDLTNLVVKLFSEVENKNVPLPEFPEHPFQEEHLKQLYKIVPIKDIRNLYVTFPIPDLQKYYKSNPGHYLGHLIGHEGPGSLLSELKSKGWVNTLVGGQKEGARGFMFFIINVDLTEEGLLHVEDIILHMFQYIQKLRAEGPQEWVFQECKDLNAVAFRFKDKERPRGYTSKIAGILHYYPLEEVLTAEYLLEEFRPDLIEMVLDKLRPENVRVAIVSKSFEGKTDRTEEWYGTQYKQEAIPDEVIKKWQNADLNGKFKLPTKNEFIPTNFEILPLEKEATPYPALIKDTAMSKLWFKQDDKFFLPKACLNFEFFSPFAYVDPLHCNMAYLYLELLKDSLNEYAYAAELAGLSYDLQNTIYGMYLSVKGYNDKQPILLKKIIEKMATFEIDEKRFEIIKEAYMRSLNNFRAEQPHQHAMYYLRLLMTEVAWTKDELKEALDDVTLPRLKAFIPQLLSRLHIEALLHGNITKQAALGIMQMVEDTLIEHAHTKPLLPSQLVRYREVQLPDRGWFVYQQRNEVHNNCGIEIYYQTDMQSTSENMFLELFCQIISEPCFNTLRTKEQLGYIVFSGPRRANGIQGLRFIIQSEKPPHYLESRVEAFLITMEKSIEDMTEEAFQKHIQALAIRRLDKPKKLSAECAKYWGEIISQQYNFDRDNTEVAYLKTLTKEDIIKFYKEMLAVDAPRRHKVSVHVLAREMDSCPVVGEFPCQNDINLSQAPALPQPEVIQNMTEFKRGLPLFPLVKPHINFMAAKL
protocol: Vulnerability of peptides to degradation by IDE: 0 vs 4 h pre-incubation, then FRET1 assay
Format: biochemical
reported-conditions: 4-hr incubation; Cheng-Prusoff from IC50, FRET1 KM 10 uM, substrate 5 uM
Ends that are not written are not given here.
reported-endpoint: log10 of Ki (log10 of the value in µM)
// units: µM (pre-log); metric: Ki; scale: log10

For orientation, consider the following solved cases.
1) VHWDFRQW-NH2 [P12-1B] :: 2.12
2) VHWDFRQWWQPS-NH2 [P12-1A] :: 1.79
3) WSPISGKFFQRF-NH2 [P12-4A] :: 1.64
4) QSLPWCYP-NH2 [P12-3B] :: 1.49

Ask | // query log10 of Ki value for entry WSPISGKFFQRF [P12-4]
Reply | 2.41

Ask | Look at this substance and give its reported log10 of Ki. VHWDFRQWWQPS [P12-1]
Reply | 2.02

Ask | Report log10 of Ki for Ac-FRQWWQPS [P12-1C] please.
Reply | 2.51
